Tested on: OVCAR-4 ovarian
Test: NCI tumour cell line growth inhibition, 48 h
ENDPOINT_LABEL: log10(TGI) (log10 of the value in µM)
# values: log10(TGI), units µM

A selection of reference data follows.
- COMPOUND: "Nc1cc(N)c2nc(NCCc3ccc(Cl)c(Cl)c3)cnc2c1"
  MEAS_VALUE: 0.51
- COMPOUND: "COc1ncc(-c2ccc3nccc(C#CCCCCC(=O)NO)c3c2)cc1NS(=O)(=O)c1ccc(F)cc1F"
  MEAS_VALUE: 1.15
- COMPOUND: "Nc1ncnc2c1ccn2-c1cccc(NC(=O)c2ccc(N3CCOCC3)c(C(F)(F)F)c2)c1"
  MEAS_VALUE: 1.10
- COMPOUND: "CC[As](CC)SCC1OC(OC(C)=O)C(OC(C)=O)C(OC(C)=O)C1OC(C)=O (stereo unspecified)"
  MEAS_VALUE: 1.57
- COMPOUND: "COc1cc2c(cc1-c1coc3cc(O)ccc3c1=O)OCO2"
  MEAS_VALUE: 1.65

Batch lookup, log10(TGI) per entry.
1. Fc1ccc(Nc2nc3nonc3nc2Nc2ccc(I)cc2)cc1
2. CCCCCCc1cc2cc(C(=O)Nc3cccc(F)c3)c(=N)oc2cc1O
3. C#CCn1c(=O)ccn(/C(=C/C(=O)OCC)C(=O)OCC)c1=O
4. O=C1OCC2=C1C(c1cccc(Cl)c1)c1cc3c(cc1N2CCO)CCC3 (stereo unspecified)
5. COC(=O)c1c2c(c(C)[n+]([O-])c1C)C(=O)C(NCc1ccc(O)cc1)=CC2=O
6. COc1cc2c(cc1[N+](=O)[O-])C(=O)C(Br)(Br)CCC2

1: 1.81; 2: 1.09; 3: 1.25; 4: 1.29; 5: 0.35; 6: 1.20
